Catalogue of IC50 readings, one per entry.
# TARGET OR SYSTEM: Prothrombin (Homo sapiens, UniProt P00734)
Numeric only. Scale: µM

# ENTRY SMILES, UOM, IC50
data = [
    ("N=C(N)NCCC[C@H](NC(=O)CN1CC(=O)N[C@H](CCCNC(=N)N)C1=O)C(=O)c1nccs1", "µM", 200),
    ("N=C(N)NCCC[C@H](NC(=O)CN1CCN[C@@H](Cc2ccccc2)C1=O)C(=O)c1nccs1", "µM", 2),
    ("N=C(N)NCCC[C@H](NC(=O)CN1CCN(S(=O)(=O)Cc2ccccc2)[C@H](CC(=O)O)C1=O)C(=O)c1nccs1", "µM", 40),
    ("N=C(N)NCCC[C@H](NC(=O)CN1CCN(S(=O)(=O)Cc2ccccc2)[C@H](CO)C1=O)C(=O)c1nccs1", "µM", 2),
]

Record summary for N=C(N)NCCC[C@H](NC(=O)CN1CCN(S(=O)(=O)Cc2ccccc2)[C@H](CC(=O)N2CCCCC2)C1=O)C(=O)c1nccs1 : reported IC50 = 8

* * *

# TARGET OR SYSTEM: Prothrombin (Homo sapiens)
pIC50: −log10 of the molar value.
Tick Met if pIC50 is 5 or greater. Tick Not met if pIC50 is less than 5.

# ENTRY SMILES, ANSWER LABEL
data = [
    ("COC(=O)CC[C@@H]1C(=O)N(CC(=O)N[C@@H](CCCNC(=N)N)C(=O)c2nccs2)CCN1S(=O)(=O)Cc1ccccc1", "Met"),
    ("N=C(N)NCCC[C@H](NC(=O)CN1CCN(S(=O)(=O)Cc2ccccc2)[C@@H](CC(=O)N2CCCCC2)C1=O)C(=O)c1nccs1", "Not met"),
    ("CCOC(=O)C[C@@H]1C(=O)N(CC(=O)N[C@@H](CCCN=C(N)N)C(=O)c2nccs2)CCN1S(=O)(=O)Cc1ccccc1", "Met"),
    ("N=C(N)NCCC[C@H](NC(=O)CN1CCN[C@H](Cc2ccccc2)C1=O)C(=O)c1nccs1", "Not met"),
]

# evaluate next
## Input I'd appreciate it if you could say whether N=C(N)NCCC[C@H](NC(=O)CN1CCN(S(=O)(=O)Cc2ccccc2)[C@@H](Cc2ccccc2)C1=O)C(=O)c1nccs1 has pIC50 at least equal to 5.
## Output Met
